Hello, the source for this data is patent US20150011508A1, in case you need it.

MEASUREMENT TARGET: c-kit (Homo sapiens)
Construct: human Mo7e cells which endogenously express c-kit; endogenous in cells; host or cells: human Mo7e cells (SCF-dependent promegakaryocytic leukemia line)
Sequence (P10721 26-976): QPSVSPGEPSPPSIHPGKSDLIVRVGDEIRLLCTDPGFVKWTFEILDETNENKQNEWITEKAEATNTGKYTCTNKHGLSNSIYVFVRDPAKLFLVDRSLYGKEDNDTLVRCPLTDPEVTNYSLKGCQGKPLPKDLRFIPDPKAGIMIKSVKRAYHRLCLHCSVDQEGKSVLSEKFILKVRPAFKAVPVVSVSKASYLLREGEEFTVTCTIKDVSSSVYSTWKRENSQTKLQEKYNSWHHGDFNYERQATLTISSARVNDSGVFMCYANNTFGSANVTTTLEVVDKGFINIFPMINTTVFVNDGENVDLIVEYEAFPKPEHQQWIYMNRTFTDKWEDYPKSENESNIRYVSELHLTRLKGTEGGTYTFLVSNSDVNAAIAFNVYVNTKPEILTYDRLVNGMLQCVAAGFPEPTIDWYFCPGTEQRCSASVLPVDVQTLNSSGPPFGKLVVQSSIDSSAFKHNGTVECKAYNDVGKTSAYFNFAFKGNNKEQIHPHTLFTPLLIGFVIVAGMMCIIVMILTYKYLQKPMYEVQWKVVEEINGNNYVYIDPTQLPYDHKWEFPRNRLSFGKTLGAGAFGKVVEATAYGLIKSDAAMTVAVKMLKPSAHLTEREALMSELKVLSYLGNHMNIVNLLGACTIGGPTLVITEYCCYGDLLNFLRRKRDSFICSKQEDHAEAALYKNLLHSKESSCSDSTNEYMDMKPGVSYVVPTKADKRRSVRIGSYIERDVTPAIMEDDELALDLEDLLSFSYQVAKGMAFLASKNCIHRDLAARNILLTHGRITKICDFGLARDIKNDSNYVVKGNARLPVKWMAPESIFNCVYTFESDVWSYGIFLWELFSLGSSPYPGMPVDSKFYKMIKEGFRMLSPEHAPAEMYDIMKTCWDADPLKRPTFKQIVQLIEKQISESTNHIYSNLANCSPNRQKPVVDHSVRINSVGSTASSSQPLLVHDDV
ASSAY EXPLANATION: Mo7e cell proliferation assay (SCF dependent proliferation)
Assay type: cell-based
CONDITION NOTES: Table 2; human Mo7e cells stimulated with human recombinant SCF, 48 h, CellTiter Glo; 1% FBS (footnote)
Description: Compounds of Formula (I) and Formula (II) provided herein were assayed to measure their capacity to inhibit c-kit and PDGFR kinases using the appropriate assay described below: c-Kit inhibition was evaluated using the Mo7e cell proliferation assay, and PDGFR inhibition was evaluated using the Rat A10 cell proliferation assay and the Human TGHA-VSMC cell proliferation assay. […]

{"columns": ["COMPOUND", "IC50 / nM"],
 "data": [
  ["Cc1ccn2c(C(=O)Nc3cc(-c4noc(CC[C@@](C)(OC(=O)[C@@H](N)C(C)C)C(F)(F)F)n4)ccc3C)cnc2c1", 142],
  ["Cc1ccc(-c2noc(CN)n2)cc1NC(=O)c1cnc2ccccn12", 1030],
  ["CC(=O)NCCCc1nc(-c2ccc(C)c(NC(=O)c3cnc4ccccn34)c2)no1", 1320],
  ["Cc1ccc(-c2noc(CCCNC(=O)OC(C)(C)C)n2)cc1NC(=O)c1cnc2ccccn12", 364],
  ["Cc1ccc(-c2noc(C(CC(F)(F)F)N(C)C)n2)cc1NC(=O)c1cnc2ccccn12 (stereo not shown)", 182],
  ["Cc1ccc(-c2noc(CCCS(N)(=O)=O)n2)cc1NC(=O)c1cnc2ccccn12", 367],
  ["Cc1ccc(-c2noc(CNC(=O)OCCF)n2)cc1NC(=O)c1cnc2ccccn12", 155],
  ["Cc1nc(-c2ccc(C)c(NC(=O)c3cnc4ccc(-c5cnccc5C)cn34)c2)no1", 135],
  ["Cc1ccc(-c2noc(CCC(C)(C)O)n2)cc1NC(=O)c1cnc2ccc(CCN3CCOCC3)cn12", 158],
  ["Cc1ccc(-c2noc(CCC(C)(C)O)n2)cc1NC(=O)c1cnc2ccc(COCC(F)(F)F)cn12", 150],
  ["COCCOCc1nc(-c2ccc(C)c(NC(=O)c3cnc4ccc(OC)cn34)c2)no1", 103],
  ["Cc1ccc(-c2noc(C[C@@H](C)NC(=O)OC(C)(C)C)n2)cc1NC(=O)c1cnc2ccccn12", 294],
  ["Cc1ccc(-c2noc(CNC(=O)CCC(F)(F)F)n2)cc1NC(=O)c1cnc2ccccn12", 182],
  ["Cc1nc(-c2ccc(C)c(NC(=O)c3cnc4ccc(-c5c(C)nn(CC(=O)OC(C)(C)C)c5C)cn34)c2)no1", 209],
  ["CC(C)(C)OC(=O)NCc1nc(-c2ccc(F)c(NC(=O)c3cnc4ccccn34)c2)no1", 207],
  ["COCCOC(=O)NCCc1nc(-c2ccc(C)c(NC(=O)c3cnc4ccccn34)c2)no1", 305],
  ["COC(=O)N[C@H](C)c1nc(-c2ccc(C)c(NC(=O)c3cnc4ccccn34)c2)no1", 193],
  ["Cc1ccc(-c2noc(CC#N)n2)cc1NC(=O)c1cnc2ccccn12", 2380],
  ["Cc1ccc(-c2noc(C(C)(C)NC(=O)OC(C)(C)C)n2)cc1NC(=O)c1cnc2ccccn12", 201],
  ["Cc1ccc(-c2noc(CCC(C)(C)O)n2)cc1NC(=O)c1cnc2cc(F)ccn12", 142],
  ["Cc1ccc(-c2noc([C@H](C)N)n2)cc1NC(=O)c1cnc2ccccn12", 889],
  ["Cc1nc(-c2ccc(C)c(NC(=O)c3cnc4ccc(CCN5CCNCC5)cn34)c2)no1", 571],
  ["COC(=O)NCc1nc(-c2ccc(C)c(NC(=O)c3cnc4ccc(C#N)cn34)c2)no1", 220],
  ["CCOC(=O)NCCc1nc(-c2ccc(C)c(NC(=O)c3cnc4ccccn34)c2)no1", 248],
  ["CCC(C)(O)c1nc(-c2ccc(C)c(NC(=O)c3cnc4ccccn34)c2)no1 (stereo not shown)", 174],
  ["COCCOCc1nc(-c2cc(NC(=O)c3cnc4ccccn34)c(C)cc2F)no1", 396],
  ["Cc1ccc(-c2noc(C(C)(C)N)n2)cc1NC(=O)c1cnc2ccccn12", 1060],
  ["COCC(=O)NCc1nc(-c2ccc(C)c(NC(=O)c3cnc4ccccn34)c2)no1", 319],
  ["CC(=O)NCCc1nc(-c2ccc(C)c(NC(=O)c3cnc4ccccn34)c2)no1", 689],
  ["COC(=O)NCc1nc(-c2ccc(C)c(NC(=O)c3cnc4cc(F)ccn34)c2)no1", 184],
  ["Cc1ccn2c(C(=O)Nc3cc(-c4noc(CC[C@](C)(OC(=O)[C@H](N)C(C)C)C(F)(F)F)n4)ccc3C)cnc2c1", 134],
  ["Cc1ccc(-c2noc(CN(C)S(C)(=O)=O)n2)cc1NC(=O)c1cnc2ccccn12", 156],
  ["Cc1ccc(-c2noc(CCC(C)(C)O)n2)cc1NC(=O)c1cnc2cc(N3CCOC3=O)ccn12", 272],
  ["Cc1nc(-c2ccc(C)c(NC(=O)c3cnc4ccc(-c5cnccn5)cn34)c2)no1", 125]
]}

====

Each entry below lists one item and its recorded IC50 value.
MEASUREMENT TARGET: c-kit (Homo sapiens)
Construct: human Mo7e cells which endogenously express c-kit; endogenous in cells; host or cells: human Mo7e cells (SCF-dependent promegakaryocytic leukemia line)
ASSAY EXPLANATION: Mo7e cell proliferation assay (SCF dependent proliferation)
Type: cell-based
CONDITION NOTES: Table 1; human Mo7e cells stimulated with human recombinant SCF, 48 h, CellTiter Glo; 1% FBS (footnote)
MEASURED METRIC: IC50 (nM)

{"columns": ["MOLECULE", "MEASURED METRIC", "UNITS OF MEASURE", "VALUE REPORTED"],
 "data": [
  ["COC(C)(CCc1nc(-c2ccc(C)c(NC(=O)c3cnc4cc(C)ccn34)c2)no1)C(F)(F)F (stereo not drawn)", "IC50", "nM", 48],
  ["Cc1ccn2c(C(=O)Nc3cc(-c4noc(CC[C@@](C)(O)C(F)(F)F)n4)ccc3C)cnc2c1 (single isomer, unassigned)", "IC50", "nM", 49],
  ["CCOC(=O)NCc1nc(-c2ccc(C)c(NC(=O)c3cnc4ccc(F)cn34)c2)no1", "IC50", "nM", 47],
  ["Cc1ccc(-c2noc(COCCOC(C)C)n2)cc1NC(=O)c1cnc2ccccn12", "IC50", "nM", 81],
  ["COCCOCc1nc(-c2ccc(C)c(NC(=O)c3cnc4ccc(C)cn34)c2)no1", "IC50", "nM", 90],
  ["Cc1ccc(-c2noc(CCC(C)(C)O)n2)cc1NC(=O)c1cnc2cc(-c3cnn(C)c3)ccn12", "IC50", "nM", 7],
  ["Cc1ccn2c(C(=O)Nc3cc(-c4noc(NCCF)n4)ccc3C)cnc2c1", "IC50", "nM", 54],
  ["CC(=O)c1sc(-c2ccc3ncc(C(=O)Nc4cc(-c5noc(C)n5)ccc4C)n3c2)nc1C", "IC50", "nM", 54],
  ["Cc1nc(-c2ccc(C)c(NC(=O)c3cnc4ccc(-c5c(C)nn(CCN6CCOCC6)c5C)cn34)c2)no1", "IC50", "nM", 24],
  ["CO[C@H](C)c1nc(-c2ccc(C)c(NC(=O)c3cnc4ccccn34)c2)no1", "IC50", "nM", 99],
  ["CCN(Cc1nc(-c2ccc(C)c(NC(=O)c3cnc4ccccn34)c2)no1)C(=O)OC", "IC50", "nM", 59],
  ["Cc1ccc(-c2noc(CCC(C)(C)O)n2)cc1NC(=O)c1cnc2cc(N3CCOC3=O)ccn12", "IC50", "nM", 272],
  ["Cc1nc(-c2ccc(C)c(NC(=O)c3cnc4ccc(-c5cnn(C)c5)cn34)c2)no1", "IC50", "nM", 25],
  ["CCCC(C)c1nc(-c2ccc(C)c(NC(=O)c3cnc4ccc(C)cn34)c2)no1 (stereo not drawn)", "IC50", "nM", 22],
  ["Cc1ccn2c(C(=O)Nc3cc(-c4noc(CCC(C)(O)C(F)(F)F)n4)ccc3C)cnc2c1 (stereo not drawn)", "IC50", "nM", 16],
  ["Cc1ccc(-c2noc(CCC(C)(C)O)n2)cc1NC(=O)c1cnc2cc(N3CCCC3=O)ccn12", "IC50", "nM", 79],
  ["Cc1ccc(-c2noc(N(C)CC(C)(C)O)n2)cc1NC(=O)c1cnc2cc(F)ccn12", "IC50", "nM", 100],
  ["Cc1ccc(-c2noc(COCC(F)F)n2)cc1NC(=O)c1cnc2ccccn12", "IC50", "nM", 39],
  ["Cc1ccn2c(C(=O)Nc3cc(-c4noc(C[C@@H](O)C(F)(F)F)n4)ccc3C)cnc2c1", "IC50", "nM", 45],
  ["CCOC(=O)Cc1nc(-c2ccc(C)c(NC(=O)c3cnc4ccccn34)c2)no1", "IC50", "nM", 87],
  ["CCN(Cc1nc(-c2ccc(C)c(NC(=O)c3cnc4ccccn34)c2)no1)S(C)(=O)=O", "IC50", "nM", 89],
  ["Cc1ccn2c(C(=O)Nc3cc(-c4noc(CCC(O)C(F)(F)F)n4)ccc3C)cnc2c1 (stereo not drawn) [F253]", "IC50", "nM", 13],
  ["Cc1ccc(-c2noc(CC(C)(O)C(F)(F)F)n2)cc1NC(=O)c1cnc2ccccn12 (stereo not drawn)", "IC50", "nM", 82],
  ["Cc1ccc(-c2noc(C(CO)(CO)NS(C)(=O)=O)n2)cc1NC(=O)c1cnc2ccccn12", "IC50", "nM", 67],
  ["Cc1ccc2ncc(C(=O)Nc3cc(-c4noc(CCC(C)(C)O)n4)ccc3C)n2c1", "IC50", "nM", 98],
  ["Cc1ccc(-c2noc(CCC(=O)OC(C)C)n2)cc1NC(=O)c1cnc2ccccn12 [F55a]", "IC50", "nM", 92],
  ["COCCOCc1nc(-c2ccc(C)c(NC(=O)c3cnc4ccc(F)cn34)c2)no1", "IC50", "nM", 92]
]}
